SYSTEM TESTED: Tyrosine-protein phosphatase non-receptor type 22 (Homo sapiens)
PROTOCOL: inhibitors of LYP phosphatase, biochemical, fluorescence intensity, uHTS (AID 1779);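 further: plate controls were vehicle with enzyme for no effect and no enzyme for full effect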
TEST CONTEXT: recombinant LYP phosphatase, at 11.5 µM, stronger effect = higher value
The campaign covered roughly 290,000 compounds. About 160 (0.055%) were called active. This excerpt belongs to a sample that is enriched for actives.
For each of the compounds below, state its inhibition.

Previously resolved entries follow.
C=CCN1C(=O)NC(=O)C(Cc2ccc(OC)c(OC)c2)C1=O (stereo unspecified)	3.4% (inactive)
CC(=O)c1ccc2c(c1)C1C(Cl)C(Sc3ccccc3[N+](=O)[O-])CC1C(C(=O)O)N2 (stereo unspecified)	51.4% (active)

For the 4 compounds below, give their inhibition values.
1. CC(=O)c1ccc2c(c1)C1C(Cl)C(Sc3ccccc3[N+](=O)[O-])CC1C(c1ccccc1)N2 (stereo unspecified)
2. CCOP(=O)(/C=C(\Cl)c1ccccc1)C(O)c1ccc(F)cc1 (stereo unspecified)
3. Cc1nc2c(=O)n(C)c(=O)nc-2n(C)n1
4. CCOC(=O)c1c(C)n(CC(O)CN2CCOCC2)c2cc(Br)c(OC)cc12 (stereo unspecified)

Reply:
1: 6% (inactive); 2: -5.3% (inactive); 3: 87.9% (active); 4: -6.1% (inactive)

* * *

For each of the molecules below, state its inhibition.
SYSTEM TESTED: Tyrosine-protein phosphatase non-receptor type 22 (Homo sapiens)
PROTOCOL: inhibitors of LYP phosphatase, biochemical, fluorescence intensity, uHTS (AID 1779);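 further: plate controls were vehicle with enzyme for no effect and no enzyme for full effect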
TEST CONTEXT: recombinant LYP phosphatase, at 11.5 µM, stronger effect = higher value
Among all 290,000 compounds or so, about 160 (0.055%) were called active. The entries come from a sample that favours actives as a whole.
One number for each entry, in %.

Previously resolved entries follow.
CN1CC(C(=O)c2ccc(F)cc2)C(c2ccc(F)cc2)C1 (stereo not given)	-5.4
CCOC(=O)C(NC(=O)CC)(Nc1ccc(C(O)(C(=O)OCC)C(F)(F)F)cc1C)C(F)(F)F (stereo not given)	-6.6
C=CCC1C(=O)NC(=S)NC1=O	4.3
c1ccc2c(CN3CCOCC3)c[nH]c2c1	-8.9
O=c1c2ccccc2nc(-c2cccs2)n1-c1ccccc1	-10.4

For the 6 molecules below, give their inhibition values.
1. CCCCNC(=O)Nc1ccc(C(O)(C(=O)OCC)C(F)(F)F)cc1 (stereo not given)
2. CCn1nc(-c2cccs2)nc2c(=O)n(C)c(=O)nc1-2
3. CCn1nc(-c2ccccc2)nc2c(=O)n(C)c(=O)nc1-2
4. COc1ccc(-n2c(/C=C/c3ccc(O)cc3)nc3ccccc3c2=O)cc1
5. COc1ccccc1N1CCN(CCc2ccccc2)CC1
6. Cc1cc(OC(=O)c2cccs2)c2c3c(c(=O)oc2c1)CCCC3

Reply:
[-8.2, 52.8, 60.7, -7.8, -7.3, 2.4]

For the 4 molecules below, give their inhibition values.
1. CCCc1nc2ccccc2c(=O)n1-c1ccc(OC)cc1
2. CCN1CCN(c2ccc([N+](=O)[O-])cc2C=C2C(=O)NC(=O)NC2=O)CC1
3. CCOC(=O)C(NC(=O)CCl)(Nc1ccc(C(O)(C(=O)OCC)C(F)(F)F)cc1)C(F)(F)F (stereo not given)
4. CC(=O)C1C(=O)NC23CCCCC2C1c1ccccc1O3 (stereo not given)

Reply:
1. 2.2
2. -8.1
3. 82.4
4. 1.8

For the 5 molecules below, give their inhibition values.
1. Cc1cccnc1-n1c(C)nc2ccccc2c1=O
2. Cc1cccnc1-n1c(-c2ccccc2)nc2ccccc2c1=O
3. CN(C)CC1CSCCC1(O)c1ccc(C(F)(F)F)cc1 (stereo not given)
4. CCn1nc(/C=C/c2ccccc2)nc2c(=O)n(C)c(=O)nc1-2
5. COCc1cc(C2SCC(=O)Nc3c2c(=O)[nH]n3C(C)C)ccc1OC (stereo not given)

Reply:
90.2
-1.3
-5.6
79.3
-11.3
